# System: human embryonic stem cell derived neural stem cells (NSCs)
# testMethodNotes: Neural stem cell proliferation assay (neurogenesis assay)
# Format: cell-based
# conditionParameters: Homo sapiens, Neural stem cell, 96 h; Table 1, novel compounds; concentration at which 150% activity of control (100%) is reached; ATP levels (CellTiterGlo) after 4 days incubation
quantityMeasured: EC (150% of control) (µM)
Expressed in µM, but write only the number.

compound=COc1ccc(-c2cncc3ccc(C(=O)NCc4ccccn4)nc23)cc1 valuereported=0.03
compound=O=C(NCc1ccccc1)c1ccc2cncc(-c3ccccc3Cl)c2n1 valuereported=0.58
compound=NC(=O)c1ccc2cncc(-c3ccc(Cl)cc3Cl)c2n1 valuereported=0.1
compound=O=C(NCc1ccccc1)c1ccc2cncc(-c3ccncc3)c2n1 valuereported=0.04
compound=COc1cccc(-c2cncc3ccc(C(N)=O)nc23)c1 valuereported=0.24
compound=COCCNC(=O)c1ccc2cncc(-c3ccc(OC)cc3)c2n1 valuereported=0.03
compound=CS(=O)(=O)c1ccc(CNC(=O)c2ccc3cncc(-c4ccc(Cl)cc4)c3n2)cc1 valuereported=0.32
compound=CS(=O)(=O)c1ccc(CNC(=O)c2ccc3cncc(-c4ccc(F)cc4F)c3n2)cc1 valuereported=0.51
compound=O=C(Nc1cccnc1)c1ccc2cncc(-c3ccc(Cl)cc3)c2n1 valuereported=0.8
compound=O=C(NCCCn1ccnc1)c1ccc2cncc(-c3cccc(Cl)c3)c2n1 valuereported=1.04

Q) What does the record list as EC (150% of control) for COCc1ccc(-c2cncc3ccc(C(N)=O)nc23)cc1 ?
A) 0.02

Q) So what does the record say about EC (150% of control) for Cn1cc(NC(=O)c2ccc3cncc(-c4ccc(Cl)cc4)c3n2)cn1 ?
A) 0.25

Q) For the compound O=C(NCc1ccncc1)c1ccc2cncc(-c3ccc(Cl)cc3)c2n1 , what EC (150% of control) is on record?
A) 0.1

Q) Item CS(=O)(=O)CCNC(=O)c1ccc2cncc(-c3ccccc3F)c2n1 has what recorded EC (150% of control)?
A) 0.23

Q) Fill blank: measured EC (150% of control) of the compound NC(=O)c1ccc2cncc(-c3cccc(OCC(F)(F)F)c3)c2n1 is ____.
A) 0.06

Q) So what does the record say about EC (150% of control) for NC(=O)c1ccc2cncc(-c3cccc(F)c3)c2n1 ?
A) 0.05

Q) What value of measured EC (150% of control) is listed for CC(NC(=O)c1ccc2cncc(-c3ccc(F)c(F)c3)c2n1)c1ccc(S(C)(=O)=O)cc1 (stereo not shown) ?
A) 0.3

Q) Look at this compound and give its reported EC (150% of control). O=C(NCc1ccccc1)c1ccc2cncc(Br)c2n1
A) 0.76

Q) For the compound shown here, CN(C(=O)c1ccc2cncc(-c3ccc(Cl)cc3)c2n1)C1CC1 , give the reported EC (150% of control).
A) 0.26
